Recorded % LRRKtide phosphorylation relative to solvent, one value per entry.
Biological target: GST-tagged truncated LRRK2 containing residues 970 to 2527 (Homo sapiens, UniProt Q5S007)
Construct: GST-tagged truncated LRRK2 containing residues 970 to 2527 (Life Technologies); purchased Life Technologies
Sequence (Q5S007 970-2527): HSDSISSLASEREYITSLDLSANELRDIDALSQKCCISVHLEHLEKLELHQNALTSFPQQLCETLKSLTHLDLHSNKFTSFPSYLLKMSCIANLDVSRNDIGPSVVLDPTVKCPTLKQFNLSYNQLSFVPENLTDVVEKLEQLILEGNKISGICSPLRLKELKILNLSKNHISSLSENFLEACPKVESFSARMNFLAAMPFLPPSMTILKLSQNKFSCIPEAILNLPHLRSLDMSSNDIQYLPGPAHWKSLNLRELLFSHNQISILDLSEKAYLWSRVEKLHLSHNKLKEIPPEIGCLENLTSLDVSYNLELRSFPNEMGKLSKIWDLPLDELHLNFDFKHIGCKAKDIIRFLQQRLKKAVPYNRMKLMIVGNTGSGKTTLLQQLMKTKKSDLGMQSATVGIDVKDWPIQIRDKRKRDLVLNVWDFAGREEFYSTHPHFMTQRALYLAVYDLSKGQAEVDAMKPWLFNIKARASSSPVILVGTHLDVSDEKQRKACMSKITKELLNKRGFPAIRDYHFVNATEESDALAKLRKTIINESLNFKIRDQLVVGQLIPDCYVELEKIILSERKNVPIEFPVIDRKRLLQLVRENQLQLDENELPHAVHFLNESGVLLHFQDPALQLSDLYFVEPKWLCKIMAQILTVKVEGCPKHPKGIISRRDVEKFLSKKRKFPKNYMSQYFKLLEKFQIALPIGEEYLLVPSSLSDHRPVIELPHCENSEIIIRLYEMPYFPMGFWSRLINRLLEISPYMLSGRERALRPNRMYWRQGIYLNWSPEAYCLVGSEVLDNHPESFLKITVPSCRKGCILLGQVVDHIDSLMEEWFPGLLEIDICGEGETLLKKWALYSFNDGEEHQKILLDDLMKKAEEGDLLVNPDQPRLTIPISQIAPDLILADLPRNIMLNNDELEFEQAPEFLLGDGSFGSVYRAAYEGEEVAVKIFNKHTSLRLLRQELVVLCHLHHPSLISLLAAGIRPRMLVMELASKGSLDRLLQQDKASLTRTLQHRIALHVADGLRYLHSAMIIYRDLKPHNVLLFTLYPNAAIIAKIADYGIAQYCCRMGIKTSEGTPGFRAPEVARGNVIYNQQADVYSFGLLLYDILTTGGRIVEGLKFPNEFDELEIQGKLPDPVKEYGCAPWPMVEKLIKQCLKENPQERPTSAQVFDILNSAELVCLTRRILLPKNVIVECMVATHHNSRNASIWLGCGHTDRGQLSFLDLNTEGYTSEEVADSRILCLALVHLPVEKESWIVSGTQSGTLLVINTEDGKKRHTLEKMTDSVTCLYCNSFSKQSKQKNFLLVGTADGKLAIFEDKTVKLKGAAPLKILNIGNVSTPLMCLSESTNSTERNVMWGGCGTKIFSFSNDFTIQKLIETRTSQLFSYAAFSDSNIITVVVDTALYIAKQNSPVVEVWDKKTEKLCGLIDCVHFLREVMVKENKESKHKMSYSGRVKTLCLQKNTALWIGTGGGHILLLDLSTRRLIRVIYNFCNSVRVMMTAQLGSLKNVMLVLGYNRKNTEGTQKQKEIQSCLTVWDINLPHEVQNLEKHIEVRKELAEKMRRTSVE
Test: In vitro LRRKtide peptide-substrate kinase assay, single dose testing (10 μM)
Format: biochemical
Conditions: LRRKtide assay @ 10 μM inhibitor; GST-LRRK2 970-2527; 10 μM ATP; mean, N = 3; solvent control = 100%
Write the answer as a number in %, unit excluded.

Documented % LRRKtide phosphorylation relative to solvent of "CC(=O)c1ccc(N2CCOCC2)cc1O" : 68.41

* * *

Target: GST-tagged truncated LRRK2 containing residues 970 to 2527 (Homo sapiens, UniProt Q5S007)
Construct: GST-tagged truncated LRRK2 containing residues 970 to 2527 (Life Technologies); purchased Life Technologies
Assay: In vitro LRRKtide peptide-substrate kinase assay, single dose testing (10 μM)
Format: biochemical
Conditions: LRRKtide assay @ 10 μM inhibitor; GST-LRRK2 970-2527; 10 μM ATP; mean, N = 3; solvent control = 100%
endpointName: % LRRKtide phosphorylation relative to solvent (%)
Give your result in % as a bare value.

Below are worked cases with known answers.
N#Cc1cnc2cnc(NCc3cccnc3)cc2c1Nc1ccc(F)c(Cl)c1 :: 55.04
N#Cc1c(NC(=O)c2cccc3ccccc23)sc2c1CCCC2 :: 61.45
O=c1cc(N2CCOCC2)oc2c(-c3ccccc3)cccc12 :: 90.73
COc1cc2ncnc(N3CCN(C(=O)Nc4ccc(Oc5ccccc5)cc4)CC3)c2cc1OC :: 55.86
Nc1ncnc2c1c(-c1ccc(Oc3ccccc3)cc1)cn2C1CCCC1 :: 15.36
O=C(Nc1nc2ccccc2n1CCN1CCOCC1)c1cccc([N+](=O)[O-])c1 :: 55.78
COc1cc2ncnc(Nc3ccc(OCc4ccccc4)cc3)c2cc1OC :: 68.24
O=c1[nH][nH]c2nnc(-c3c(-c4ccccc4)nn4ccccc34)cc12 [ERK inhibitor II, negative control] :: 97.07
CCCNC(=O)Nc1ccc(Oc2ncnc3cc(OC)c(OC)cc23)cc1Cl :: 68.07

Now turn to the next compound.
// field: % LRRKtide phosphorylation relative to solvent; key: Cl.Cl.O=S(=O)(NCCNC/C=C/c1ccc(Br)cc1)c1cccc2cnccc12 [H-89, Dihydrochloride] ; value = 45.29

* * *

Target: GST-tagged truncated LRRK2 containing residues 970 to 2527 (Homo sapiens)
Construct: GST-tagged truncated LRRK2 containing residues 970 to 2527 (Life Technologies); purchased Life Technologies
Experiment: In vitro LRRKtide peptide-substrate kinase assay, single dose testing (10 μM)
Format: biochemical
Conditions: LRRKtide assay @ 10 μM inhibitor; GST-LRRK2 970-2527; 10 μM ATP; mean, N = 3; solvent control = 100%
Kind request: treat 5% as inclusive, so % LRRKtide phosphorylation relative to solvent at 5% or higher is fulfilled, anything lower is not fulfilled.

# example entries with known answers
NC(=O)c1cccc(-c2cc(Nc3ccc(OC(F)(F)F)cc3)ncn2)c1 :: fulfilled
Nc1nc(Nc2ccc(S(N)(=O)=O)cc2)nn1C(=S)Nc1c(F)cccc1F :: not fulfilled
CC(C)(C)c1nc2c3cc[nH]c(=O)c3c3cc(F)ccc3c2[nH]1 :: not fulfilled
CCN(CC)CCCCN1c2ccccc2Oc2ccc(Cl)cc21 :: fulfilled
O=C1Nc2ccc3ncsc3c2/C1=C/c1cnc[nH]1 :: not fulfilled
O=C1NC(=O)C(c2c[nH]c3ccccc23)=C1c1c[nH]c2ccccc12 [Bisindolylmaleimide IV] :: not fulfilled
COc1ccc(CNc2nc(N(CCO)CCO)nc3c2ncn3C(C)C)cc1 :: fulfilled

Proceed to the following item.
Confirm if % LRRKtide phosphorylation relative to solvent reported for the compound "O=C(O)c1ccc2c3c1cccc3c(=O)n1c3ccccc3nc21" is 5% or above.
fulfilled

* * *

Molecular target: LRRK2 phospho-Ser935 (Homo sapiens)
Construct: expressed in transfected cells
Sequence (Q5S007 whole entry): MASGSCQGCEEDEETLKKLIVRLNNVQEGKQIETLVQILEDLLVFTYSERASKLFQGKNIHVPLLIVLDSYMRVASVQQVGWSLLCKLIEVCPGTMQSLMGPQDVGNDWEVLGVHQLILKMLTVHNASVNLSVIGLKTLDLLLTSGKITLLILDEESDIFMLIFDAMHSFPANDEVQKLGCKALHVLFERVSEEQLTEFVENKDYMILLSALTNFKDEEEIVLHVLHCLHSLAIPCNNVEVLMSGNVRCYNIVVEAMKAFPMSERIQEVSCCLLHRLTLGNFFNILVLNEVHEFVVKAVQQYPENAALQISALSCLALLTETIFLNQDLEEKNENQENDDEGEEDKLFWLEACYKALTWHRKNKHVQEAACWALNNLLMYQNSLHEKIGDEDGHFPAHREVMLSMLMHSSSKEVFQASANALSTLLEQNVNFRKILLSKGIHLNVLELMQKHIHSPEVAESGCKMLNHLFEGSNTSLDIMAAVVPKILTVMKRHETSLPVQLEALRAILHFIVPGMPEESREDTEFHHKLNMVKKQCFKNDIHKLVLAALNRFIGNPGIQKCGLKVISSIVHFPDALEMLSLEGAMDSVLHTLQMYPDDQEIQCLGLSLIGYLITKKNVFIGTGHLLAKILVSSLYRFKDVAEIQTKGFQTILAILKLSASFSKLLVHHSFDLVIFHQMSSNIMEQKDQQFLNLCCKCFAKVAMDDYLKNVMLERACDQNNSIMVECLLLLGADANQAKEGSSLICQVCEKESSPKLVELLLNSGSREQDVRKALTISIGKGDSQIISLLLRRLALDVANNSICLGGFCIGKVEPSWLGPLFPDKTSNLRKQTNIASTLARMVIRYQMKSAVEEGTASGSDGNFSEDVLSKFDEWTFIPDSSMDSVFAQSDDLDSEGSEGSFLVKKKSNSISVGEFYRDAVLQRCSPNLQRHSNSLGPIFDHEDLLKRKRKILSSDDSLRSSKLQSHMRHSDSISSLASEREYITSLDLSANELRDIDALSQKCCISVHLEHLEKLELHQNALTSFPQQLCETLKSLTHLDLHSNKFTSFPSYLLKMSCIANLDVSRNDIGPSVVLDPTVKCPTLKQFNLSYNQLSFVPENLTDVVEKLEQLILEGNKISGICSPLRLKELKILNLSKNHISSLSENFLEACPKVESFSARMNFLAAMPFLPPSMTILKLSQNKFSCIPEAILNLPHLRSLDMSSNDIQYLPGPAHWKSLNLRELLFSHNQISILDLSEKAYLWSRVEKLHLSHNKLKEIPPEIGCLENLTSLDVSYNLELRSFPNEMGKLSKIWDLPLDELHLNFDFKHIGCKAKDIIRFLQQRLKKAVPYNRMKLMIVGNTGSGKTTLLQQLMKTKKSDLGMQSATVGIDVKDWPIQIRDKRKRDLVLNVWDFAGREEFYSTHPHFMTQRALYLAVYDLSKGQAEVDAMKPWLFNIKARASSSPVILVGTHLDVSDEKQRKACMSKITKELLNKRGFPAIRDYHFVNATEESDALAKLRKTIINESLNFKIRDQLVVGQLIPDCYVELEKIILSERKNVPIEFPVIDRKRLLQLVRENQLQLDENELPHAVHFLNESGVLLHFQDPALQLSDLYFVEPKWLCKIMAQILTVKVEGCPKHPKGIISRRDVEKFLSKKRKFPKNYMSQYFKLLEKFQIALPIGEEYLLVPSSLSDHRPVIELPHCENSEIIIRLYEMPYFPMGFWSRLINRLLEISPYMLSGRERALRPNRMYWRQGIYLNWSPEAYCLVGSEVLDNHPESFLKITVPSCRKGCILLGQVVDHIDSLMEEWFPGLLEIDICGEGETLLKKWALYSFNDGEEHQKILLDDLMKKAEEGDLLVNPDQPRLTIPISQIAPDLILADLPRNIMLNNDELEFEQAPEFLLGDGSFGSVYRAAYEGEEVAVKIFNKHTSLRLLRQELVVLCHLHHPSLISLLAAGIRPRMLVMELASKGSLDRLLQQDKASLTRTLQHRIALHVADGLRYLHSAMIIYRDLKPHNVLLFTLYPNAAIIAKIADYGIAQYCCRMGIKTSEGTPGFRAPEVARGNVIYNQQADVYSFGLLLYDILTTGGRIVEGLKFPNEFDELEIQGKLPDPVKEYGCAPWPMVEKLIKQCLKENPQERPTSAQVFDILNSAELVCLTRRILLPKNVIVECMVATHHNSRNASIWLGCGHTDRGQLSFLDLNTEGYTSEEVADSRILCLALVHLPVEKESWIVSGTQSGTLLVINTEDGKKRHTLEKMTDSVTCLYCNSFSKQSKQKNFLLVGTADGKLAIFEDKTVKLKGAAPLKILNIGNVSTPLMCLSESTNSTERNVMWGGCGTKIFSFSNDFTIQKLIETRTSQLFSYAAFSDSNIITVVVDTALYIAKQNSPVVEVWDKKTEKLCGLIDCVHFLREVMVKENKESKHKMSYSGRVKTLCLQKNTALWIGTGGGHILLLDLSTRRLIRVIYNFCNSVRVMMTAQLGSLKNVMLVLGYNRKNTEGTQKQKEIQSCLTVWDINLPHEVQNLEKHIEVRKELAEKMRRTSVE
Test: Cellular LRRK2 phosphoserine 935 dephosphorylation spotblot assay in SH-SY5Y cells stably expressing 3xFlag-LRRK2
Assay type: cell-based
Settings: @ 5 μM for 2 h; SH-SY5Y stably expressing LRRK2; pS935/total LRRK2
Quick rule for you: Phosphorylation level relative to solvent (%) (cellular pS935 assay) at 70% or higher means condition met, lower means condition not met.

// known answers, use as guide
O=C(O)c1ccc2c3c1cccc3c(=O)n1c3ccccc3nc21 [STO-609] :: condition met
Cc1cc(C)c(/C=C2\C(=O)Nc3ccccc32)[nH]1 [VEGF receptor 2 kinase inhibitor III] :: condition not met
O=C1Nc2ccccc2/C1=C\c1c(Cl)[nH]c2ccccc12 [Cdk1 inhibitor] :: condition met

Does O=C1Nc2ccc(Br)cc2/C1=C/c1cc2c([nH]1)CCCC2 [VEGF receptor 2 kinase inhibitor II] have a reported Phosphorylation level relative to solvent (%) (cellular pS935 assay) of at least 70%?
condition not met

Hi, just wondering whether O=C1Nc2ccccc2/C1=C1/Nc2ccccc2/C1=N\OCC(O)CO (stereo not drawn) [Indirubin derivative E804] shows Phosphorylation level relative to solvent (%) (cellular pS935 assay) of 70% or higher.
condition met

Confirm if Phosphorylation level relative to solvent (%) (cellular pS935 assay) reported for the compound "O=C(Nc1ccc(Cl)cc1)c1ccccc1NCc1ccncc1" is 70% or above.
condition not met

Exam item: decide whether the reported Phosphorylation level relative to solvent (%) (cellular pS935 assay) for Oc1ccc(Nc2nc(-c3ccc(Cl)cc3)cs2)cc1 [Sphingosine kinase inhibitor] is at least 70%.
condition met

Item CCN(CC)C(=O)c1ccc(Nc2nc(OCC3CCCCC3)c3[nH]cnc3n2)cc1 [Cdk2 inhibitor IV, NU6140, NU6140] with Phosphorylation level relative to solvent (%) (cellular pS935 assay) of 70% or above?
condition not met

Test whether the compound O=c1cc(N2CCOCC2)oc2c(-c3ccccc3)cccc12 [LY 294002] records Phosphorylation level relative to solvent (%) (cellular pS935 assay) of 70% or higher.
condition met

Dear colleague, could you confirm whether COc1cccc(-c2cc(=O)c3ccccc3o2)c1N [PD98059] has Phosphorylation level relative to solvent (%) (cellular pS935 assay) at or above 70%?
condition met

In plain terms: is recorded Phosphorylation level relative to solvent (%) (cellular pS935 assay) at least 70% for COc1cc(OC)c(C=C2C(O)=Nc3ccccc32)c(OC)c1 [IC261] ?
condition met

Given COc1cc2ncnc(Nc3ccc(O)c(Br)c3)c2cc1OC [JAK3 inhibitor II] , state whether its Phosphorylation level relative to solvent (%) (cellular pS935 assay) is at least 70%.
condition not met

* * *

Molecular target: full length LRRK2 protein (Homo sapiens)
Construct: compounds were tested in triplicate with full length LRRK2 protein; made in house
Sequence (Q5S007 whole entry): as the sequence (Q5S007 whole entry) above
Experiment: In vitro LRRKtide kinase assay with full length recombinant LRRK2, dose-response (IC50/pIC50)
Type: biochemical
Conditions: LRRKtide phosphorylation, dose-response
endpointName: pIC50 in vitro (lrrktide)
The reply should be a number, written without any unit.

COc1cc2ncnc(Nc3ccc(Oc4ccccc4)cc3)c2cc1OC :: 6.03

Looking up "CC(C)n1cnc2c(Nc3cccc(Cl)c3)nc(NCCO)nc21" , I found its pIC50 in vitro (lrrktide) recorded as 5.41

Form field pIC50 in vitro (lrrktide), entry "Nc1nc(Nc2ccc(S(N)(=O)=O)cc2)nn1C(=S)Nc1c(F)cccc1F" : 9.04

Notebook: "O=C1Nc2ccccc2/C1=C1/Nc2ccccc2/C1=N\O" , pIC50 in vitro (lrrktide) read as 5.75

Record O=C1Nc2ccccc2/C1=C1/Nc2ccccc2/C1=N\OCC(O)CO (stereo not drawn) , field pIC50 in vitro (lrrktide): 6.16

// recorded pIC50 in vitro (lrrktide) for "COc1cc2ncnc(Nc3cccc(Cl)c3)c2cc1OC" : 5.43

* * *

Molecular target: GST-tagged truncated LRRK2 containing residues 970 to 2527 (Homo sapiens)
Construct: GST-tagged truncated LRRK2 containing residues 970 to 2527 (Life Technologies); purchased Life Technologies
Assay: In vitro LRRKtide peptide-substrate kinase assay, single dose testing (10 μM)
Format: biochemical
Details: LRRKtide assay @ 10 μM inhibitor; GST-LRRK2 970-2527; 10 μM ATP; mean, N = 3; solvent control = 100%
Structures can show the parent of a compound that is named as a salt.
% LRRKtide phosphorylation relative to solvent by entry:
Kindly answer with a numeric value in %, unit omitted.

COc1cccc(-c2cc(=O)c3ccccc3o2)c1N [PD98059] :: 92.53
C[S+]([O-])c1ccc(-c2nc(-c3ccncc3)c(-c3ccc(F)cc3)[nH]2)cc1 (centres unmarked) [SB 203580] :: 100.48
O=C1NC(=O)c2c1c1c3ccccc3[nH]c1n1cncc21 [Isogranulatimide] :: 4.64
CCN1/C(=C/C(C)=O)Sc2ccc(OC)cc21 [Cdc2-like kinase inhibitor, TG003, TG003] :: 37.41
COc1ccc(OC)c2c(=S)c3ccccc3[nH]c12 [Cdk4 inhibitor II, 625987, NSC 625987] :: 76.06

Entry O=S(=O)(c1cccc2cnccc12)N1CCCNCC1 [HA 1077, Dihydrochloride Fasudil, Fasudil] ; % LRRKtide phosphorylation relative to solvent = 79.40

Measured % LRRKtide phosphorylation relative to solvent of CC(C)[C@H](CO)Nc1nc(Nc2cc(N)cc(Cl)c2)c2ncn(C(C)C)c2n1 [Aminopurvalanol A] : 7.36

Given item COc1ccc(S(=O)(=O)N(CCO)c2ccccc2CN(C)C/C=C/c2ccc(Cl)cc2)cc1 [KN-93] , the value recorded as its % LRRKtide phosphorylation relative to solvent is 120.59

src = paper PMC4042160
